Where do the numbers come from? From patent US20230374116A1.

Test System: SARS-CoV-2 receptor-binding domain (amino acids 330-532), prototypical Wuhan/Victoria (SARS-CoV-2 (Wuhan/Victoria), UniProt P0DTC2 330-532)
Experiment: SPR, RBD binding kinetics
Give measured koff for each item. Keep answers brief.
Give bare numbers, in s⁻¹.

Example results:
| Binder | U | koff |
| --- | --- | --- |
| C1-SUMO-H11-H4-Fc (Fc fusion, also called C1-GSGSGS-SUMO-GSGSGS-H11-H4) QVQLVESGGGLVQPGGSLRLSCAASGFTNDFYSIAWFRQAPGKEREGVSWLSVSDNTPTYVDSVKDRFTISRHNANNTVYLQMNMLKPEDTAIYYCAAGRFAGRDTWPSSYDYWGQGTQVTVSSGSGSGSDSEVNQEAKPEVKPEVKPETHINLKVSDGSSEIFFKIKKTTPLRRLMEAFAKRQGKEMDSLRFLYDGIRIQADQTPEDLDMEDNDIIEAHREQIGSGSGSQVQLVESGGGLMQAGGSLRLSCAVSGRTFSTAAMGWFRQAPGKEREFVAAIRWSGGSAYYADSVKGRFTISRDKAKNTVYLQMNSLKYEDTAVYYCAQTHYVSYLLSDYATWPYDYWGQGTQVTVSS | s⁻¹ | 6.8e-05 |
| F2-SUMO-C5-Fc (Fc fusion, also called F2-GSGSGS-SUMO-GSGSGS-C5) QVQLVESGGGLVQAGGSLRLACIASGRTFHSYVMAWFRQAPGKEREFVAAISWSSTPTYYGESVKGRFTISRDNAKNTVYLQMNRLKPEDTAVYFCAADRGESYYYTRPTEYEFWGQGTQVTVSSGSGSGSDSEVNQEAKPEVKPEVKPETHINLKVSDGSSEIFFKIKKTTPLRRLMEAFAKRQGKEMDSLRFLYDGIRIQADQTPEDLDMEDNDIIEAHREQIGSGSGSQVQLVESGGGSVQAGGSLTLSCVASGVTLGRHAIGWFRQAPGKERERVSCIRTFDGITSYVESTKGRFTISSNNAMNTVYLQMNSLKPEDTAVYFCALGVTAACSDNPYFWGQGTQVTVSS | s⁻¹ | 1.7e-05 |

Read the next record carefully.
Request the reported koff associated with C1-SUMO-H3-Fc (Fc fusion, also called C1-GSGSGS-SUMO-GSGSGS-H3) QVQLVESGGGLVQPGGSLRLSCAASGFTNDFYSIAWFRQAPGKEREGVSWLSVSDNTPTYVDSVKDRFTISRHNANNTVYLQMNMLKPEDTAIYYCAAGRFAGRDTWPSSYDYWGQGTQVTVSSGSGSGSDSEVNQEAKPEVKPEVKPETHINLKVSDGSSEIFFKIKKTTPLRRLMEAFAKRQGKEMDSLRFLYDGIRIQADQTPEDLDMEDNDIIEAHREQIGSGSGSQVQLVESGGGLVKTGGSLRLSCAASGRTFSTYSMGWFRQAPGKEREFVAGMRWTGSSTFYSDSVKGRFTVSRNNAKDTVYLHMNSLKPEDTAVYYCAITTIVRAYYTEYTEADFGSWGQGTQVTVS
4.7e-05
